test system: NCI-H292 lung cancer cells; test: FDA drug screening, complete media vs cholesterol-free media with simvastatin (TABLE 2); type: cell-based, human; conditions: NCI-H292 cells, FDA drug library screen, cholesterol-free media with simvastatin 0.04 μM
Structures can show the parent of a compound that is named as a salt.
READOUT_TYPE: Cholesterol-free media + simvastatin (0.04 μM)
One number for each entry.

These recorded examples may help you get a feel for the data.
Cl.NCCCC[C@H](N)C(=O)O [L-Lysine hydrochloride] : 1.192
Cc1cc(C)nc(NS(=O)(=O)c2ccc(N)cc2)n1 : 1.21
Cc1ncc([N+](=O)[O-])n1CC(O)CN1CCOCC1 (stereo not drawn) [Morinidazole (R enantiomer)] : 1.178
NC(=O)NS(=O)(=O)c1ccc(N)cc1 [Sulfacarbamide] : 0.9379
Cl.Cl.[O-][S+]1c2ccccc2N=C(N2CCN(CCOCCO)CC2)c2ccccc21 (stereo not shown) [Quetiapine sulfoxide (dihydrochloride)] : 1.184
O=C1C2CC3CC1CC(O)(C3)C2 : 1.208

Batch request: Cholesterol-free media + simvastatin (0.04 μM) for each of the following molecules.
1. O=[N+]([O-])O[C@@H]1CO[C@H]2[C@@H]1OC[C@@H]2O [Isosorbide mononitrate]
2. Nc1cc(N2CCCCC2)nc(N)[n+]1OS(=O)(=O)[O-] [Minoxidil sulfate]
3. CCC[C@H](NC(=O)[C@@H]1[C@H]2CCC[C@H]2CN1C(=O)[C@@H](NC(=O)[C@@H](NC(=O)c1cnccn1)C1CCCCC1)C(C)(C)C)C(=O)C(=O)NC1CC1
4. CC(=O)N1CCN(c2ccc(OC[C@H]3CO[C@](Cn4ccnc4)(c4ccc(Cl)cc4Cl)O3)cc2)CC1 [(+)-Ketoconazole]
5. CC1(C)S[C@@H]2[C@H](/N=C/N3CCCCCC3)C(=O)N2[C@H]1C(=O)O
6. N#Cc1ccc2[nH]cc(CCCCN3CCN(c4ccc5oc(C(N)=O)cc5c4)CC3)c2c1 [Vilazodone (Hydrochloride)]
7. Cc1[nH]cnc1CN1CCc2c(c3ccccc3n2C)C1=O [Alosetron (Hydrochloride)]
8. CC(C)NCC(O)c1ccccc1Cl (stereo not shown) [Clorprenaline hydrochloride]

Reply text:
0.8339
1.144
1.084
0.4743
1.033
0.5785
0.9241
0.6832

For the 3 molecules below, give their Cholesterol-free media + simvastatin (0.04 μM) values.
1. C[C@]12CCC(=O)C=C1C=C[C@@H]1[C@@H]2CC[C@@]2(C)[C@H]1CC[C@@]21CCC(=O)O1
2. FC(F)(F)c1ccc(CNc2ccc(Cc3c[nH]c4ncc(Cl)cc34)cn2)cn1 [Pexidartinib (hydrochloride)]
3. CCN(CC)CCOC(=O)C1(C2CCCCC2)CCCCC1 [Dicyclomine (hydrochloride)]

Reply text:
[1.098, 1.136, 0.9961]

Below are some molecules; for each one, tell me its Cholesterol-free media + simvastatin (0.04 μM).
1. CN(C)CCC=C1c2ccccc2CCc2ccccc21 [Amitriptyline (hydrochloride)]
2. O=P(O)(O)C(O)(Cn1ccnc1)P(=O)(O)O [Zoledronic acid (monohydrate)]

Reply text:
[0.9551, 0.7262]
